Where these numbers come from: patent US11401246B2

- measurement target: human glycolate oxidase (hGO) (Homo sapiens)
- Construct: His-tag (6 histidines, pET-15b) (N); made in house; host or cells: E. coli BL21 (DE3)
- protocol notes: In vitro inhibition of human glycolate oxidase (enzymatic assay, HRP-coupled Trinder reaction);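 note: values are IC50 potency bins despite the % Inhibition label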
- Format: biochemical
- cond: recombinant hGO, 40 mM glycolic acid, pH 7, read at 515 nm, 1 minute after initiation of Trinder reaction; read-out: % Inhibition
experimental readout: IC50

{"structure as smiles": "O=C(O)c1nn[nH]c1Oc1ccc(-c2nccs2)cc1", "value measured": "100 to 200 nM"}
{"structure as smiles": "CN1CCN(c2ccc(Oc3[nH]nnc3C(=O)O)cc2)CC1", "value measured": "> 200 nM"}
{"structure as smiles": "CC(C)(C)c1ccc(Oc2[nH]nnc2C(=O)O)cc1", "value measured": "> 200 nM"}
{"structure as smiles": "Cc1ccc(-c2ccc(Oc3[nH]nnc3C(=O)O)cc2)cn1", "value measured": "100 to 200 nM"}
{"structure as smiles": "Cc1cc(-c2ccc(-c3ccc(Oc4[nH]nnc4C(=O)O)cc3)cc2)ccn1", "value measured": "100 to 200 nM"}
{"structure as smiles": "Cc1cc(Oc2[nH]nnc2C(=O)O)ccc1-c1cnc(F)c(C)c1", "value measured": "100 to 200 nM"}
{"structure as smiles": "O=C(O)c1nn[nH]c1Oc1ccc(C2CCSCC2)cc1", "value measured": "100 to 200 nM"}
{"structure as smiles": "CC(C)c1ccc(-c2ccc(Sc3[nH]nnc3C(=O)O)cc2)cc1", "value measured": "100 to 200 nM"}
{"structure as smiles": "COc1ccc(-c2ccc(Oc3[nH]nnc3C(=O)O)cc2)cn1", "value measured": "< 100 nM"}
{"structure as smiles": "O=C(O)c1nn[nH]c1Oc1ccc(-c2ccc(-c3ccncc3)cc2)cc1", "value measured": "< 100 nM"}

====

- measurement target: human glycolate oxidase (hGO) (Homo sapiens, UniProt Q9UJM8)
- Construct: His-tag (6 histidines, pET-15b) (N); made in house; host or cells: E. coli BL21 (DE3)
- protocol notes: In vitro inhibition of human glycolate oxidase (enzymatic assay, HRP-coupled Trinder reaction);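 note: values are IC50 potency bins despite the % Inhibition label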
- Assay type: biochemical
- cond: recombinant hGO, 40 mM glycolic acid, pH 7, read at 515 nm, 1 minute after initiation of Trinder reaction; read-out: % Inhibition
This listing pairs compounds with measured IC50.

{"structure as smiles": "N#Cc1ccc(-c2cccc(Oc3[nH]nnc3C(=O)O)c2)cc1", "IC50": "100 to 200 nM"}
{"structure as smiles": "Cc1c(-c2ccc(Oc3[nH]nnc3C(=O)O)cc2)ccnc1F", "IC50": "< 100 nM"}
{"structure as smiles": "Cc1ccc(Oc2[nH]nnc2C(=O)O)cn1", "IC50": "> 200 nM"}
{"structure as smiles": "COc1ccc(-c2ccc(Oc3[nH]nnc3C(=O)O)cc2OC)c(OC)n1", "IC50": "< 100 nM"}
{"structure as smiles": "O=C(O)c1nn[nH]c1Oc1ccc(-c2cc(F)cnc2Cl)cc1", "IC50": "< 100 nM"}
{"structure as smiles": "CC(C)c1cccc(-c2ccc(Oc3[nH]nnc3C(=O)O)cc2)c1", "IC50": "> 200 nM"}
{"structure as smiles": "O=C(O)c1nn[nH]c1Oc1ccc(-c2ccc(F)c(Cl)c2)cc1", "IC50": "< 100 nM"}
{"structure as smiles": "COc1ccc(Oc2[nH]nnc2C(=O)O)cn1", "IC50": "> 200 nM"}
{"structure as smiles": "Cc1ccc(Oc2[nH]nnc2C(=O)O)cc1", "IC50": "100 to 200 nM"}
{"structure as smiles": "O=C(O)c1nn[nH]c1Oc1ccc(Br)cc1", "IC50": "< 100 nM"}

====

- measurement target: human glycolate oxidase (hGO) (Homo sapiens)
- Construct: His-tag (6 histidines, pET-15b) (N); made in house; host or cells: E. coli BL21 (DE3)
- Sequence (Q9UJM8 1-370): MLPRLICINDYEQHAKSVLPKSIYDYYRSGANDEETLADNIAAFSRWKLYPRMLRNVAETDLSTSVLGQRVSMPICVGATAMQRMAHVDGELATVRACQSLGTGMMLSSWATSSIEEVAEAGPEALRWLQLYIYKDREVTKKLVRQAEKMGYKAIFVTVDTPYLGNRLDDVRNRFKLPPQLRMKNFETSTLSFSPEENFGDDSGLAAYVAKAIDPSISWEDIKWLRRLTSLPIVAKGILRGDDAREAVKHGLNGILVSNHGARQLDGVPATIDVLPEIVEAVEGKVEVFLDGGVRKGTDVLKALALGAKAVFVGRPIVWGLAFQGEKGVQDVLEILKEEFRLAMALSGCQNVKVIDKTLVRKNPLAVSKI
- protocol notes: In vitro inhibition of human glycolate oxidase (enzymatic assay, HRP-coupled Trinder reaction);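 note: values are IC50 potency bins despite the % Inhibition label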
- Type: biochemical
- cond: recombinant hGO, 40 mM glycolic acid, pH 7, read at 515 nm, 1 minute after initiation of Trinder reaction; read-out: % Inhibition

{"compound": "N#Cc1ccc(Oc2[nH]nnc2C(=O)O)cc1", "measurement target": "human glycolate oxidase (hGO) (Homo sapiens)", "IC50": "< 100 nM"}
{"compound": "O=C(O)c1nn[nH]c1Oc1ccc(C2CC2(F)F)cc1 (stereo not drawn)", "measurement target": "human glycolate oxidase (hGO) (Homo sapiens)", "IC50": "> 200 nM"}
{"compound": "CC(C)c1ccc(-c2ccc(Oc3[nH]nnc3C(=O)O)cc2)cc1", "measurement target": "human glycolate oxidase (hGO) (Homo sapiens)", "IC50": "< 100 nM"}
{"compound": "O=C(O)c1nn[nH]c1Oc1ccc(-c2cncc3ccccc23)cc1", "measurement target": "human glycolate oxidase (hGO) (Homo sapiens)", "IC50": "100 to 200 nM"}
{"compound": "Cc1cc(Oc2[nH]nnc2C(=O)O)ccc1-c1ccc(F)nc1C", "measurement target": "human glycolate oxidase (hGO) (Homo sapiens)", "IC50": "100 to 200 nM"}
{"compound": "O=C(O)c1nn[nH]c1Oc1ccc(-c2cccnc2Cl)cc1", "measurement target": "human glycolate oxidase (hGO) (Homo sapiens)", "IC50": "< 100 nM"}
{"compound": "Cc1cc(-c2ccc(Oc3[nH]nnc3C(=O)O)cc2)ccn1", "measurement target": "human glycolate oxidase (hGO) (Homo sapiens)", "IC50": "< 100 nM"}
{"compound": "O=C(O)c1nn[nH]c1Oc1ccc(N2CCNCC2)cc1", "measurement target": "human glycolate oxidase (hGO) (Homo sapiens)", "IC50": "< 100 nM"}
{"compound": "O=C(O)c1nn[nH]c1Oc1ccc(-c2ccc(-c3ccc(OC(F)F)cc3)cc2)cc1", "measurement target": "human glycolate oxidase (hGO) (Homo sapiens)", "IC50": "> 200 nM"}

====

- measurement target: human glycolate oxidase (hGO) (Homo sapiens, UniProt Q9UJM8)
- Construct: His-tag (6 histidines, pET-15b) (N); made in house; host or cells: E. coli BL21 (DE3)
- protocol notes: In vitro inhibition of human glycolate oxidase (enzymatic assay, HRP-coupled Trinder reaction);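 note: values are IC50 potency bins despite the % Inhibition label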
- Assay type: biochemical
- cond: recombinant hGO, 40 mM glycolic acid, pH 7, read at 515 nm, 1 minute after initiation of Trinder reaction; read-out: % Inhibition
pIC50: −log10 of the molar value.

{"structure as smiles": "CC(C)Cc1ccc(-c2ccc(Oc3[nH]nnc3C(=O)O)cc2)cc1", "measurement target": "human glycolate oxidase (hGO) (Homo sapiens, UniProt Q9UJM8)", "pIC50": "< 6.70"}
{"structure as smiles": "O=C(O)c1nn[nH]c1Oc1ccc(-c2cccnc2F)cc1", "measurement target": "human glycolate oxidase (hGO) (Homo sapiens, UniProt Q9UJM8)", "pIC50": "> 7.00"}
{"structure as smiles": "O=C(O)c1nn[nH]c1Oc1ccc(-c2ncco2)cc1", "measurement target": "human glycolate oxidase (hGO) (Homo sapiens, UniProt Q9UJM8)", "pIC50": "6.70 to 7.00"}
{"structure as smiles": "Cc1ccc(Oc2[nH]nnc2C(=O)O)c(C)n1", "measurement target": "human glycolate oxidase (hGO) (Homo sapiens, UniProt Q9UJM8)", "pIC50": "< 6.70"}
{"structure as smiles": "CC(C)c1ccc(-c2ccc(Oc3[nH]nnc3C(=O)O)c(F)c2)cc1", "measurement target": "human glycolate oxidase (hGO) (Homo sapiens, UniProt Q9UJM8)", "pIC50": "6.70 to 7.00"}

====

This listing pairs compounds with measured pIC50.
- measurement target: human glycolate oxidase (hGO) (Homo sapiens)
- Construct: His-tag (6 histidines, pET-15b) (N); made in house; host or cells: E. coli BL21 (DE3)
- Sequence (Q9UJM8 1-370): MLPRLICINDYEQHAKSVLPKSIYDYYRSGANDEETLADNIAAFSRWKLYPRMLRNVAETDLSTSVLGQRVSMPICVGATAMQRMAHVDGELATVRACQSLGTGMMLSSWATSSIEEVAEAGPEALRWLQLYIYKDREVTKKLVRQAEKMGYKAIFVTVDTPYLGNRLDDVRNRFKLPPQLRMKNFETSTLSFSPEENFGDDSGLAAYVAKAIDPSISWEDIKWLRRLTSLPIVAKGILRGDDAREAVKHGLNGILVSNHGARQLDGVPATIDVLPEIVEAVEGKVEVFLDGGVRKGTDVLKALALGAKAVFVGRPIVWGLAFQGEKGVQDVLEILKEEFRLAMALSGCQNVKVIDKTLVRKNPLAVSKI
- protocol notes: In vitro inhibition of human glycolate oxidase (enzymatic assay, HRP-coupled Trinder reaction);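 note: values are IC50 potency bins despite the % Inhibition label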
- Type: biochemical
- cond: recombinant hGO, 40 mM glycolic acid, pH 7, read at 515 nm, 1 minute after initiation of Trinder reaction; read-out: % Inhibition
pIC50: −log10 of the molar value.
experimental readout: pIC50

{"structure as smiles": "O=C(O)c1nn[nH]c1Oc1ccc(-c2cn[nH]c2)cc1", "value measured": "6.70 to 7.00"}
{"structure as smiles": "O=C(O)c1nn[nH]c1Oc1ccc(-c2cccc(OC(F)F)c2)cc1", "value measured": "> 7.00"}
{"structure as smiles": "O=C(O)c1nn[nH]c1Oc1ccc(-c2ccc(OC(F)F)cc2)cc1", "value measured": "6.70 to 7.00"}
{"structure as smiles": "O=C(O)c1nn[nH]c1Oc1ccc(-c2ccc(C(F)(F)F)cc2)cc1F", "value measured": "6.70 to 7.00"}
{"structure as smiles": "CC1(c2ccc(-c3ccc(Oc4[nH]nnc4C(=O)O)cc3)cc2)CC1", "value measured": "6.70 to 7.00"}
